Attribution: ChEMBL document CHEMBL4265943

Parameter selectivity ratio: see the listing below.
- METHOD DESCRIPTION: Selectivity index, ratio of CC50 for mouse TAMH cells to IC50 for human MCF7 cells
- Assay type: toxicity
- CONDITION PARAMETERS: TAMH cells (CC50) and MCF7 cells (IC50)

Past entries and their recorded results:
Q: Need selectivity ratio, item CN1CCN(c2ccc(Nc3nccc(-c4ccc(NC(=O)CCCCCCC(=O)NO)cc4)n3)cc2)CC1
Result: 3.38

Q: Need selectivity ratio, item CC(=O)Nc1ccc(-c2ccnc(Nc3cccc(OCCCCCCC(=O)NO)c3)n2)cc1
Result: 2.9

Q: Need selectivity ratio, item CC(=O)Nc1ccc(-c2nc(Nc3cccc(OCCCCCCC(=O)NO)c3)ncc2C)cc1
Result: 2.3

Continue with the next molecule.
Q: Need selectivity ratio, item O=C(CCCCCCC(=O)Nc1ccc(-c2ccnc(Nc3ccccc3)n2)cc1)NO
Result: 22.1

----------
- METHOD DESCRIPTION: Selectivity index, ratio of CC50 for mouse TAMH cells to IC50 for human MCF7 cells
- Format: toxicity
- CONDITION PARAMETERS: TAMH cells (CC50) and MCF7 cells (IC50)
Cut-off 6 on selectivity ratio, inclusive. At or above means rule met; below means rule not met.

Record excerpt, results attached:
Q: Determine whether this molecule has selectivity ratio no lower than 6: O=C(CCCCCCC(=O)Nc1ccc(-c2ccnc(Nc3cccc(N4CCCCC4)c3)n2)cc1)NO
Result: rule not met

Q: Determine whether this molecule has selectivity ratio no lower than 6: CN1CCN(CC(=O)Nc2ccc(-c3ccnc(Nc4ccc(OCCCCCCC(=O)NO)cc4)n3)cc2)CC1
Result: rule not met

Q: Determine whether this molecule has selectivity ratio no lower than 6: Cc1cnc(Nc2ccc(N3CCN(C)CC3)cc2)nc1-c1ccc(NC(=O)CCCCCCC(=O)NO)cc1
Result: rule not met

Q: Determine whether this molecule has selectivity ratio no lower than 6: CN1CCN(CC(=O)Nc2ccc(-c3ccnc(Nc4cccc(OCCCCCCC(=O)NO)c4)n3)cc2)CC1
Result: rule not met

Next:
Q: Determine whether this molecule has selectivity ratio no lower than 6: O=C(CCCCCCC(=O)Nc1ccc(-c2ccnc(Nc3ccc(N4CCOCC4)cc3)n2)cc1)NO
Result: rule met

----------
- System: Jurkat
- METHOD DESCRIPTION: Antiproliferative activity against human Jurkat cells after 72 hrs by MTT assay
- Type: functional, cell-based
Parameter IC50: see the listing below.

Q: Need IC50, item CC(=O)Nc1ccc(-c2ccnc(Nc3cccc(NC(=O)CCCCC(=O)NO)c3)n2)cc1
Result: > 10 µM

Continuing:
Q: Need IC50, item CC(=O)Nc1ccc(-c2ccnc(Nc3cccc(NC(=O)CCCCCCC(=O)NO)c3)n2)cc1
Result: > 10 µM

Q: Need IC50, item CC(=O)Nc1ccc(-c2ccnc(Nc3cccc(OCCCCCCCC(=O)NO)c3)n2)cc1
Result: > 10 µM

----------
- METHOD DESCRIPTION: Selectivity index, ratio of CC50 for mouse TAMH cells to IC50 for human HCT116 cells
- Assay type: toxicity
- CONDITION PARAMETERS: TAMH cells (CC50) and HCT116 cells (IC50)
Parameter selectivity ratio: see the listing below.
Please respond with just the number, no unit label.

Past entries and their recorded results:
Q: Need selectivity ratio, item O=C(CCCCCCC(=O)Nc1ccc(-c2ccnc(Nc3ccc(N4CCOCC4)cc3)n2)cc1)NO
Result: 6.09

Q: Need selectivity ratio, item O=C(CCCCCCC(=O)Nc1ccc(-c2ccnc(Nc3cccc(N4CCCCC4)c3)n2)cc1)NO
Result: 2.81

Q: Need selectivity ratio, item CC(=O)Nc1ccc(-c2nc(Nc3cccc(OCCCCCCCC(=O)NO)c3)ncc2C)cc1
Result: 0.5

Q: Need selectivity ratio, item CC(=O)Nc1ccc(-c2ccnc(Nc3cccc(OCCCCCC(=O)NO)c3)n2)cc1
Result: 11.2

Continue with the next compound.
Q: Need selectivity ratio, item CN1CCN(CC(=O)Nc2ccc(-c3ccnc(Nc4ccc(OCCCCCCC(=O)NO)cc4)n3)cc2)CC1
Result: 4.78

----------
- METHOD DESCRIPTION: Selectivity index, ratio of CC50 for mouse TAMH cells to IC50 for human MDA-MB-231 cells
- Type: toxicity
- CONDITION PARAMETERS: TAMH cells (CC50) and MDA-MB-231 cells (IC50)
In plain terms, low selectivity ratio, meaning strictly below 3, gives Met, and everything else gives Not met.

Q: Would you kindly verify if selectivity ratio of CC(=O)Nc1ccc(-c2nc(Nc3cccc(OCCCCCCC(=O)NO)c3)ncc2C)cc1 is strictly less than 3?
Result: Met

Q: Would you kindly verify if selectivity ratio of CC(=O)Nc1ccc(-c2ccnc(Nc3cccc(OCCCCCC(=O)NO)c3)n2)cc1 is strictly less than 3?
Result: Not met

Q: Would you kindly verify if selectivity ratio of O=C(CCCCCCC(=O)Nc1ccc(-c2ccnc(Nc3cccc(N4CCCCC4)c3)n2)cc1)NO is strictly less than 3?
Result: Not met

Q: Would you kindly verify if selectivity ratio of O=C(CCCCCCC(=O)Nc1ccc(-c2ccnc(Nc3ccccc3)n2)cc1)NO is strictly less than 3?
Result: Not met

Q: Would you kindly verify if selectivity ratio of O=C(CCCCCCC(=O)Nc1ccc(-c2ccnc(Nc3ccc(N4CCOCC4)cc3)n2)cc1)NO is strictly less than 3?
Result: Not met

Q: Would you kindly verify if selectivity ratio of CC(=O)Nc1ccc(-c2nc(Nc3cccc(OCCCCCCCC(=O)NO)c3)ncc2C)cc1 is strictly less than 3?
Result: Met

----------
Parameter CC50 at 72 h: see the listing below.
- METHOD DESCRIPTION: Antiproliferative activity against human AC10 cells after 72 hrs by MTT assay
- Assay type: cell-based
Give the value in µM but do not write µM after it.

Q: Need CC50 at 72 h, item Cc1cnc(Nc2ccc(N3CCOCC3)cc2)nc1-c1ccc(NC(=O)CCCCCCC(=O)NO)cc1
Result: 6.06

Continuing:
Q: Need CC50 at 72 h, item O=C(CCCCCCC(=O)Nc1ccc(-c2ccnc(Nc3cccc(N4CCCCC4)c3)n2)cc1)NO
Result: 5.34

Q: Need CC50 at 72 h, item Cc1cnc(Nc2ccc(N3CCN(C)CC3)cc2)nc1-c1ccc(NC(=O)CCCCCCC(=O)NO)cc1
Result: 3.72

Q: Need CC50 at 72 h, item CC(=O)Nc1ccc(-c2ccnc(Nc3ccc(NC(=O)CCCCCCC(=O)NO)cc3)n2)cc1
Result: 19.5

----------
Parameter IC50: see the listing below.
- TESTED TARGET: Protein deacetylase HDAC6 (Homo sapiens, UniProt Q9UBN7)
- Sequence (Q9UBN7 whole entry): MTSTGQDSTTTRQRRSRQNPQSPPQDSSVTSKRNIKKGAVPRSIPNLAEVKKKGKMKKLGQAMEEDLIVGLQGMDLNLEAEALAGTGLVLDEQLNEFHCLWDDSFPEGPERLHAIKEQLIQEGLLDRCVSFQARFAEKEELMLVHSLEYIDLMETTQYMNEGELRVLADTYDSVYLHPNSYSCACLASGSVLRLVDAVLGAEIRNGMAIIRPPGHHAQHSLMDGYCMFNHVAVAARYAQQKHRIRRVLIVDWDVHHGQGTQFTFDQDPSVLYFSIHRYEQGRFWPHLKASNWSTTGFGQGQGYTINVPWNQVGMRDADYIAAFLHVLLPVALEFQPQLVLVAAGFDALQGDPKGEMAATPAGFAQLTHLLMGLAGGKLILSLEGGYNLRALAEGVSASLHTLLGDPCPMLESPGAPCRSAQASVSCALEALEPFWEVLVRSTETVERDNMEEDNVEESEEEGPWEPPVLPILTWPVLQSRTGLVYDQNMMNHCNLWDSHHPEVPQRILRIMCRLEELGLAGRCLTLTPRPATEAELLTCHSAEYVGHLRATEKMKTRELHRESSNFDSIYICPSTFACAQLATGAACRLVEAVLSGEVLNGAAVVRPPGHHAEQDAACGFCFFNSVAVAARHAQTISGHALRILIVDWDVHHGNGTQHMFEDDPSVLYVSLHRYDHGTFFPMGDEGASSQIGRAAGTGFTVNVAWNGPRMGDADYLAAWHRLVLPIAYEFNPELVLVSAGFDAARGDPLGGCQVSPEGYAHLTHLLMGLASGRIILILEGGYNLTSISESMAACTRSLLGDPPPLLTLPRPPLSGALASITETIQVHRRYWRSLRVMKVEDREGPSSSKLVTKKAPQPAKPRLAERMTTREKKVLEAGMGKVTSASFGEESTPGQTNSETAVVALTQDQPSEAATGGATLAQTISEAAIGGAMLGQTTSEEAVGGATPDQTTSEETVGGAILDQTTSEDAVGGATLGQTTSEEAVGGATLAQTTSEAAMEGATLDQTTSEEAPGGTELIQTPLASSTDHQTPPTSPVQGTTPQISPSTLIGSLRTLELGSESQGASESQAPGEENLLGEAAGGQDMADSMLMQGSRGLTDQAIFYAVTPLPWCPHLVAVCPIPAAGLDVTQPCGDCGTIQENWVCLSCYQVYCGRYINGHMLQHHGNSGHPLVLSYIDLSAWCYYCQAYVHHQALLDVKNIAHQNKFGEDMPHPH
Give the value in nM but do not write nM after it.

Past entries and their recorded results:
Q: Need IC50, item CN1CCN(CC(=O)Nc2ccc(-c3ccnc(Nc4ccc(OCCCCCCC(=O)NO)cc4)n3)cc2)CC1
Result: 6.1

Q: Need IC50, item O=C(CCCCCCC(=O)Nc1ccc(-c2ccnc(Nc3cccc(N4CCCCC4)c3)n2)cc1)NO
Result: 9

Q: Need IC50, item CC(=O)Nc1ccc(-c2ccnc(Nc3cccc(OCCCCCCCC(=O)NO)c3)n2)cc1
Result: 6.7

Continuing:
Q: Need IC50, item CN1CCN(CC(=O)Nc2ccc(-c3ccnc(Nc4cccc(OCCCCCCC(=O)NO)c4)n3)cc2)CC1
Result: 6.8
